# tested system: human IL-1beta (human, UniProt P01584 117-269)
# experiment notes: cell-based or functional assay
What IC50, inhibition of ICAM-1 expression upon IL-1beta stimulation of A549 cells was measured for each of the following?
Answers are plain numbers, in nM.

Some entries whose results are on file:
binder="huH34-2 (antibody, V domains shown, Humanized antibody expressed in HEK cells; also called huH34-2 bivalent; humanized version of H34) VH: QVQLVQSGAEVKKPGASVKVSCKASGYTFTGYYMHWVRQAPGQGLEWIGYISSYNAFTTYNQKFRGRATFTVDTSISTAYMELSRLRSDDTAVYYCVRSDYYGTSLYWGQGTLVTVSS VL: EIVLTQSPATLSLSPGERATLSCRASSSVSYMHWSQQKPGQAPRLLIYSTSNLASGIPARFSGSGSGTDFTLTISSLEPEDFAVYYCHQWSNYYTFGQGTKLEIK" test_result=0.23
binder="huH34-3 (antibody, V domains shown, VH = 11 and VL = 16 read by analogy with huH34-2) VH: QVQLVQSGAEVKKPGASVKVSCKASGYTFTGYYMHWVRQAPGQGLEWIGYISSYSAFTTYNQKFRGRATFTVDTSISTAYMELSRLRSDDTAVYYCVRSDYYGTSLYWGQGTLVTVSS VL: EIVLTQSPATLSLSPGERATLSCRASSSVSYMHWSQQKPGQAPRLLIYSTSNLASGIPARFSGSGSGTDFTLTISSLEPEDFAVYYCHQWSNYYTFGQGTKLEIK" test_result=2.23

query: Suppose we examine the binder Canakinumab (antibody, V domains shown) VH: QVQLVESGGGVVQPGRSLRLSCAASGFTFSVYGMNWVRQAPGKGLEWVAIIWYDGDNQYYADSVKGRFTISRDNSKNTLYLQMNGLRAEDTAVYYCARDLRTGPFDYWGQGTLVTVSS VL: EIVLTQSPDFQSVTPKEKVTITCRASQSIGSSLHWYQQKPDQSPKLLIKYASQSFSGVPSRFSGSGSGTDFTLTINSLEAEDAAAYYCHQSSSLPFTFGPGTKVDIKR ; what IC50, inhibition of ICAM-1 expression upon IL-1beta stimulation of A549 cells value has been reported?
result: 0.31

The measured values listed here are drawn from patent US20170240629A1.
